# experimental.protocol: total protein half-life in vivo (active degradation + dilution); higher = more stable protein
# cond: wild type E. coli NCM3722; growth: P-lim chemostat; doubling time 6 h

- construct.sequence: "MIDTTLPLTDIHRHLDGNIRPQTILELGRQYNISLPAQSLETLIPHVQVIANEPDLVSFLTKLDWGVKVLASLDACRRVAFENIEDAARHGLHYVELRFSPGYMAMAHQLPVAGVVEAVIDGVREGCRTFGVQAKLIGIMSRTFGEAACQQELEAFLAHRDQITALDLAGDELGFPGSLFLSHFNRARDAGWHITVHAGEAAGPESIWQAIRELGAERIGHGVKAIEDRALMDFLAEQQIGIESCLTSNIQTSTVAELAAHPLKTFLEHGIRASINTDDPGVQGVDIIHEYTVAAPAAGLSREQIRQAQINGLEMAFLSAEEKRALREKVAAK"
  total protein half-life in vivo / h: 5.63
- construct.sequence: "MIEADRLISAGTTLPEDVADRAIRPKLLEEYVGQPQVRSQMEIFIKAAKLRGDALDHLLIFGPPGLGKTTLANIVANEMGVNLRTTSGPVLEKAGDLAAMLTNLEPHDVLFIDEIHRLSPVVEEVLYPAMEDYQLDIMIGEGPAARSIKIDLPPFTLIGATTRAGSLTSPLRDRFGIVQRLEFYQVPDLQYIVSRSARFMGLEMSDDGALEVARRARGTPRIANRLLRRVRDFAEVKHDGTISADIAAQALDMLNVDAEGFDYMDRKLLLAVIDKFFGGPVGLDNLAAAIGEERETIEDVLEPYLIQQGFLQRTPRGRMATTRAWNHFGITPPEMP [P0A812]"
  total protein half-life in vivo / h: 3.14
- construct.sequence: "MANWQSIDELQDIASDLPRFIHALDELSRRLGLNITPLTADHISLRCHQNATAERWRRGFEQCGELLSENMINGRPICLFKLHEPVQVAHWQFSIVELPWPGEKRYPHEGWEHIEIVLPGDPETLNARALALLSDEGLSLPGISVKTSSPKGEHERLPNPTLAVTDGKTTIKFHPWSIEEIVASEQSA"
  total protein half-life in vivo / h: 3.83
